- tested_on: HER2 S310F (Homo sapiens, UniProt P04626, S310F)
- Construct: expressed in transfected cells; host or cells: BaF3 (murine pro-B)
- Sequence (P04626 23-1255 S310F): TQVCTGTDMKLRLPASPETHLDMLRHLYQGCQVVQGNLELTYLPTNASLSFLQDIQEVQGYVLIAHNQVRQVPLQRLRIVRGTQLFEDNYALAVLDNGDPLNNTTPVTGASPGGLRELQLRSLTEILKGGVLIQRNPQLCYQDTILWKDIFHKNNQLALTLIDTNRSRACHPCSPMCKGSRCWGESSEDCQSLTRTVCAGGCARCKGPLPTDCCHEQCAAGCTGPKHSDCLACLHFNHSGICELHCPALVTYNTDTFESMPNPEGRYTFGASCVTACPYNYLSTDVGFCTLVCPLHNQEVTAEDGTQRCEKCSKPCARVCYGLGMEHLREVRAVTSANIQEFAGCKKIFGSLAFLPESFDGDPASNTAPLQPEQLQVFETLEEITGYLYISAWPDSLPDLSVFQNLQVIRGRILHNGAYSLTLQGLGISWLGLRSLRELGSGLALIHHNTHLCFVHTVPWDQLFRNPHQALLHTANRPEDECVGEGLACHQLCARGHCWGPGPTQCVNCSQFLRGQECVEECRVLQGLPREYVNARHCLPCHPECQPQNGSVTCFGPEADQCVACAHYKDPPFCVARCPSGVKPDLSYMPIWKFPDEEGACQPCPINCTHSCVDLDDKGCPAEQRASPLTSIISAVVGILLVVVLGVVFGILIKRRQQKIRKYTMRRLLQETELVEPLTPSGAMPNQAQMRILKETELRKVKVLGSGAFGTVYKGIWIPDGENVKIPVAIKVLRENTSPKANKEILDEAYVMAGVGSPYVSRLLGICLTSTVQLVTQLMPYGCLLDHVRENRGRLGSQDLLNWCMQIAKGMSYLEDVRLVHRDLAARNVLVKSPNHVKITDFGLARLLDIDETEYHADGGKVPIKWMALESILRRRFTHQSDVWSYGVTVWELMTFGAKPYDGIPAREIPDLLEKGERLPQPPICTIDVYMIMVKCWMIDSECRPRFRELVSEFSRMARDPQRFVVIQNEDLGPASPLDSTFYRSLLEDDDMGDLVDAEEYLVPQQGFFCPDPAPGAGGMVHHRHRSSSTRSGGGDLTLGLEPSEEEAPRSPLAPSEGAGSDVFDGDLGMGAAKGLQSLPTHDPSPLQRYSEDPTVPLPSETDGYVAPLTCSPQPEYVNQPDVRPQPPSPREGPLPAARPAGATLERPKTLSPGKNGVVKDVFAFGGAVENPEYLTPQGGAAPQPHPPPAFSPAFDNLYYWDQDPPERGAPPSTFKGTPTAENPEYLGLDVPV
- test_method_notes: BaF3 cell proliferation assay, HER2 S310F (Table B)
- Format: cell-based
- condition_set: potency code, 3 days, CellTiterGlo, read-out: HER2 S310F (Activity for Inhibiting HER2)
endpoint_label: IC50

// lookup IC50 for C=CC(=O)Nc1cc2c(Nc3ccc(OCc4ccccn4)c(Cl)c3)ncnc2cc1OC1CCN(C)CC1
30 to 50 nM

Next up: C=CC(=O)Nc1cc2c(Nc3cc(Cl)c(OCc4cccc(F)c4)cc3F)ncnc2cc1OCCN1CCOCC1
10 to 20 nM

Next up: C=CC(=O)Nc1cc2c(Nc3ccc(OCc4cccc(F)n4)c(Cl)c3)ncnc2cc1OCCN1CCOCC1
30 to 50 nM

Next up: C=CC(=O)Nc1cc2c(Nc3ccc(OCc4cccc(C)n4)c(Cl)c3)ncnc2cc1OCCN1CCN(C)CC1
50 to 100 nM

Next up: C=CC(=O)Nc1cc2c(Nc3ccc(OCc4ccccn4)c(Cl)c3)ncnc2cc1N1CCC2(CCN(C)C2)C1 (stereo not drawn)
100 to 200 nM

Next up: CC#CC(=O)Nc1cc2c(Nc3ccc(OCc4cccnn4)c(Cl)c3)ncnc2cc1OCCCN1CCOCC1
10 to 20 nM

---

- tested_on: EGFR SVD (Homo sapiens, UniProt P00533, DUP768-770)
- Construct: expressed in transfected cells; host or cells: BaF3 (murine pro-B), retroviral pMXs-IRES-Blasticidin
- Sequence (P00533 with tags, fused parts or gaps DUP768-770): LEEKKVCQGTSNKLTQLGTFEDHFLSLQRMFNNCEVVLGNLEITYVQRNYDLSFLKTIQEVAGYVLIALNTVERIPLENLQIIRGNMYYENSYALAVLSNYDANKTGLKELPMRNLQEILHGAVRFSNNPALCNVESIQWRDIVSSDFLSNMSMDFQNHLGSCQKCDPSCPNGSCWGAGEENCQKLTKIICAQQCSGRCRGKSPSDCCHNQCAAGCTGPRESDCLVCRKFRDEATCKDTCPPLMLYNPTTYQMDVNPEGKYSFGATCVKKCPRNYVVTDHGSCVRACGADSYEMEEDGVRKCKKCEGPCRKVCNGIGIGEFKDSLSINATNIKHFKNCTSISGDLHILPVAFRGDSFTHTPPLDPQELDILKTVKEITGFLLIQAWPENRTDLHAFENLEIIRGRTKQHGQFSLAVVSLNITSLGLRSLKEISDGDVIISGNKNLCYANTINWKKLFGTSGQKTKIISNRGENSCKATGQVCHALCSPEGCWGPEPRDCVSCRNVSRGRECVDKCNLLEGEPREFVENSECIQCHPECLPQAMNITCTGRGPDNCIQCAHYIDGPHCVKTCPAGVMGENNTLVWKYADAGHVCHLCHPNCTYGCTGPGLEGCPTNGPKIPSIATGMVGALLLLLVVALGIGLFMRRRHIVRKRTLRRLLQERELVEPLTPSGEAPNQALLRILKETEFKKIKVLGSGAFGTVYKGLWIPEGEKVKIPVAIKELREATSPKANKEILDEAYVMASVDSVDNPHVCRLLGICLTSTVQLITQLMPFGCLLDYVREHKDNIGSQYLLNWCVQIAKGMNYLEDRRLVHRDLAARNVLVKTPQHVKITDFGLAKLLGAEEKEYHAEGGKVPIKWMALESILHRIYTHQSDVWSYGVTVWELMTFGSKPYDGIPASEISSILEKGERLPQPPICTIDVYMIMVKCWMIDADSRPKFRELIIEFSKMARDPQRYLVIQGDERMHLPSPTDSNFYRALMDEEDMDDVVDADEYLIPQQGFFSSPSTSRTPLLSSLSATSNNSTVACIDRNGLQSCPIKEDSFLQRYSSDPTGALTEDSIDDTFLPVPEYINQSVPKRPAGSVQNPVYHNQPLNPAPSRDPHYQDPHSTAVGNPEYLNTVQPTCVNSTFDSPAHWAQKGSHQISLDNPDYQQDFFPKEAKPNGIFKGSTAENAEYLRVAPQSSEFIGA
- test_method_notes: BaF3 cell proliferation assay, EGFR SVD (Table A)
- Assay type: cell-based
- condition_set: potency code, 3 days, CellTiterGlo, read-out: EGFR SVD (Activity for Inhibiting EGFR)
pIC50: −log10 of the molar value.
endpoint_label: pIC50

// lookup pIC50 for C=CC(=O)Nc1cc2c(Nc3ccc(OCc4ccccn4)c(Cl)c3)ncnc2cc1C#CC(C)(C)N(C)C [compound 66]
7.00 to 7.30

Next up: C=CC(=O)Nc1cc2c(Nc3ccc(OCc4ccccn4)c(Cl)c3)ncnc2cc1OCCN(C)C [compound 19]
6.70 to 7.00

Next up: C=CC(=O)Nc1cc2c(Nc3ccc(OCc4ccccn4)c(Cl)c3)ncnc2cc1O[C@@H]1CCN(C)C1 [compound 17]
7.70 to 8.00

Next up: C=CC(=O)Nc1cc2c(Nc3ccc(OCc4ccccn4)c(Cl)c3)ncnc2cc1OCCCN1CCOCC1 [compound 21]
7.70 to 8.00

---

- tested_on: EGFR WT (Homo sapiens, UniProt P00533)
- Sequence (P00533 25-1210 N540K): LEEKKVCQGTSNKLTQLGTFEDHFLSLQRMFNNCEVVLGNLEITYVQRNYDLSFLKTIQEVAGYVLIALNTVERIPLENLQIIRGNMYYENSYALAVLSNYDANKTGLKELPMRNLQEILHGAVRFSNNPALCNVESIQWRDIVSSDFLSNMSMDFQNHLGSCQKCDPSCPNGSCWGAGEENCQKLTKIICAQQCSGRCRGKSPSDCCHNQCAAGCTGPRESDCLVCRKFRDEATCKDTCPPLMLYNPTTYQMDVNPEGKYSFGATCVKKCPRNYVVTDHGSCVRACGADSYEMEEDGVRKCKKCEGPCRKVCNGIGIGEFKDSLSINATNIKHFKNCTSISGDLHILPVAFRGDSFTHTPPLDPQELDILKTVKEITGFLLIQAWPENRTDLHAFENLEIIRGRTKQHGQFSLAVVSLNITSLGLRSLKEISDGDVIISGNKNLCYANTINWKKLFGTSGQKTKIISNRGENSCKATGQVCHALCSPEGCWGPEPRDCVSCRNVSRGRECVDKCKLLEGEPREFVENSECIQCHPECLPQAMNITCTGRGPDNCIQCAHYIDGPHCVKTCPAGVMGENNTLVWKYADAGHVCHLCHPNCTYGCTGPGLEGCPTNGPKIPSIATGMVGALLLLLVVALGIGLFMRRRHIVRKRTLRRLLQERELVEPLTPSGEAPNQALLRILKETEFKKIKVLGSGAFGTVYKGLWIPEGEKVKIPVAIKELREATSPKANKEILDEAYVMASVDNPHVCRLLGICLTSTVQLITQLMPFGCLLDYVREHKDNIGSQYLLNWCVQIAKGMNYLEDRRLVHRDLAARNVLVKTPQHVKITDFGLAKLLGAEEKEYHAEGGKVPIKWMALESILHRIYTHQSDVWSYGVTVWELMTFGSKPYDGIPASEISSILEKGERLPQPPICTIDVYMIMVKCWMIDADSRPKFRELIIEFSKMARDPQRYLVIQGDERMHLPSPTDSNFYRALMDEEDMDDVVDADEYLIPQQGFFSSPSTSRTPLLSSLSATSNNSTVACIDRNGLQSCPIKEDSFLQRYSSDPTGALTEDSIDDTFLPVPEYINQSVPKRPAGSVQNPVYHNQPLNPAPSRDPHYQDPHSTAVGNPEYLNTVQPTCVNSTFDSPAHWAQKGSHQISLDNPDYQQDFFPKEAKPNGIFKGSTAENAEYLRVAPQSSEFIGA
- test_method_notes: Activity for inhibiting EGFR (Table A), EGFR WT
- Assay type: cell-based
- condition_set: read-out: EGFR WT, potency code (IC50)
endpoint_label: IC50

// lookup IC50 for C=CC(=O)Nc1cc2c(Nc3ccc(Oc4cccnc4)cc3)ncnc2cc1OCCN1CCOCC1 [compound 75]
> 1000 nM

Next up: C=CC(=O)Nc1cc2c(Nc3ccc(OCc4ccccn4)c(Cl)c3)ncnc2cc1C#CC(C)(C)N1CCN(C)CC1 [compound 65]
500 to 1000 nM

Next up: CC#CC(=O)Nc1cc2c(Nc3ccc(OCc4ccccn4)c(Cl)c3)ncnc2cc1OCCN1CCN(C)CC1 [compound 70]
50 to 100 nM

Next up: C=CC(=O)Nc1cc2c(Nc3ccc(OCc4cnccn4)c(Cl)c3)ncnc2cc1OCCN1CCOCC1 [compound 176]
> 1000 nM

Next up: C=CC(=O)Nc1cc2c(Nc3cc(Cl)c(OCc4cccc(F)c4)cc3F)ncnc2cc1OCCN1CCN(C)CC1 [compound 145]
100 to 200 nM

Next up: C=CC(=O)Nc1cc2c(Nc3ccc(OCc4ccccn4)c(Cl)c3)ncnc2cc1N1CCC(N(C)C)C1 (centres unmarked) [compound 64]
> 1000 nM

Next up: C=CC(=O)Nc1cc2c(Nc3ccc(OCc4ccccn4)cc3)ncnc2cc1OCC1COCCN1 (centres unmarked) [compound 79]
300 to 500 nM

Next up: C=CC(=O)Nc1cc2c(Nc3ccc(OCc4cccc(C(F)(F)F)n4)c(Cl)c3)ncnc2cc1OCCN1CCOCC1 [compound 23]
> 1000 nM

Next up: C=CC(=O)Nc1cc2c(Nc3ccc(OCc4ccccn4)c(Cl)c3)ncnc2cc1N1CCC(N(C)C)CC1 [compound 78]
> 1000 nM

Next up: C=CC(=O)Nc1cc2c(Nc3ccc(OCc4cccc(F)n4)c(Cl)c3)ncnc2cc1OCCCN1CCOCC1 [compound 153]
500 to 1000 nM

Next up: C=CC(=O)Nc1cc2c(Nc3ccc(OCc4cccc(F)n4)c(Cl)c3)ncnc2cc1OCCN1CC(OC)C1 [compound 157]
500 to 1000 nM

Next up: CC#CC(=O)Nc1cc2c(Nc3cc(Cl)c(OCc4cccc(F)c4)cc3F)ncnc2cc1OCCN1CCN(C)CC1 [compound 146]
50 to 100 nM

Next up: C=CC(=O)Nc1cc2c(Nc3cc(Cl)c(OCc4cccc(F)c4)cc3F)ncnc2cc1OCCN1CCOCC1 [compound 6]
200 to 300 nM

Next up: C=CC(=O)Nc1cc2c(Nc3ccc(OCc4cccnn4)c(Cl)c3)ncnc2cc1OCCCN1CC(OC)C1 [compound 177]
500 to 1000 nM

Next up: C=CC(=O)Nc1cc2c(Nc3ccc(OCc4cccc(F)c4)c(Cl)c3)ncnc2cc1N(C)CCN1CCOCC1 [compound 2]
> 1000 nM

Next up: C=CC(=O)Nc1cc2c(Nc3ccc(OCc4cccc(F)n4)c(Cl)c3)ncnc2cc1OCCN1CC2CCC(C1)O2 [compound 156]
> 1000 nM

Next up: C=CC(=O)Nc1cc2c(Nc3ccc(OCc4ccccn4)c(Cl)c3)ncnc2cc1OCCCN1CCN(C)CC1 [compound 69]
300 to 500 nM

Next up: C=CC(=O)Nc1cc2c(Nc3ccc(OCc4cccc(F)n4)c(Cl)c3)ncnc2cc1OCCN1CCN(C)CC1 [compound 158]
100 to 200 nM

Next up: C=CC(=O)Nc1cc2c(Nc3cc(Cl)c(OCc4cccc(F)c4)cc3F)ncnc2cc1OCCN1CC(OC)C1 [compound 134]
200 to 300 nM

Next up: C=C(F)C(=O)Nc1cc2c(Nc3ccc(OCc4ccccn4)c(Cl)c3)ncnc2cc1OCCN1CCOCC1 [compound 109]
30 to 50 nM

Next up: C=CC(=O)Nc1cc2c(Nc3ccc(Oc4ccc(Cl)cc4)cc3)ncnc2cc1OCCN1CCOCC1 [compound 74]
> 1000 nM

Next up: C=CC(=O)Nc1cc2c(Nc3cc(Cl)c(OCc4ccccn4)cc3F)ncnc2cc1OCCN1CCOCC1 [compound 57]
500 to 1000 nM

Next up: C=CC(=O)Nc1cc2c(Nc3ccc(OCc4ccccn4)c(Cl)c3)ncnc2cc1OC1CCN(C)CC1 [compound 110]
200 to 300 nM

Next up: C=CC(=O)Nc1cc2c(Nc3ccc(OCc4ccccn4)c(Cl)c3)ncnc2cc1OCCCN1CC2CC1CO2 (centres unmarked) [compound 20]
200 to 300 nM

Next up: C=CC(=O)Nc1cc2c(Nc3ccc(OCc4ccccn4)c(Cl)c3)ncnc2cc1OCCN1C2CCC1COC2 [compound 31]
500 to 1000 nM

Next up: C=CC(=O)Nc1cc2c(Nc3ccc(OCc4ccccn4)c(Cl)c3)ncnc2cc1C#CC12CCN(CC1)CC2 [compound 126]
300 to 500 nM

Next up: C=CC(=O)Nc1cc2c(Nc3ccc(OCc4ccccn4)cc3)ncnc2cc1OCCN1CCC(N(C)C)CC1 [compound 80]
100 to 200 nM

Next up: C=CC(=O)Nc1cc2c(Nc3ccc(OCc4cccc(F)c4)c(Cl)c3)ncnc2cc1OCCN1CC2CCC(C1)O2 [compound 139]
500 to 1000 nM

Next up: C=CC(=O)Nc1cc2c(Nc3ccc(OCc4cccc(F)c4)c(Cl)c3)ncnc2cc1OCCN1CCN(C)CC1 [compound 130]
200 to 300 nM

---

- tested_on: HER2 S310F (Homo sapiens, UniProt P04626, S310F)
- Construct: expressed in transfected cells; host or cells: BaF3 (murine pro-B)
- test_method_notes: BaF3 cell proliferation assay, HER2 S310F (Table B)
- Type: cell-based
- condition_set: potency code, 3 days, CellTiterGlo, read-out: HER2 S310F (Activity for Inhibiting HER2)
pIC50: −log10 of the molar value.
Please go through the items and note down their pIC50.

// lookup pIC50 for C=CC(=O)Nc1cc2c(Nc3ccc(Oc4cccnc4)cc3)ncnc2cc1OCCN1CCOCC1 [compound 75]
6.70 to 7.00

Next up: C=CC(=O)Nc1cc2c(Nc3ccc(OCc4ccccn4)c(Cl)c3)ncnc2cc1OCCN1CC2(CCN2C)C1 [compound 115]
7.30 to 7.52

Next up: CC#CC(=O)Nc1cc2c(Nc3cc(Cl)c(OCc4cccc(F)c4)cc3F)ncnc2cc1OCCN1CCN(C)CC1 [compound 146]
7.52 to 7.70

Next up: C=CC(=O)Nc1cc2c(Nc3ccc(OCc4ccccn4)c(Cl)c3)ncnc2cc1C#C[C@@H]1[C@H]2CN(C3COC3)C[C@@H]12 [compound 113]
7.30 to 7.52
